Biological target: CDK6/Cyclin D3 (Homo sapiens)
Sequence (Q00534 whole entry, species assumed): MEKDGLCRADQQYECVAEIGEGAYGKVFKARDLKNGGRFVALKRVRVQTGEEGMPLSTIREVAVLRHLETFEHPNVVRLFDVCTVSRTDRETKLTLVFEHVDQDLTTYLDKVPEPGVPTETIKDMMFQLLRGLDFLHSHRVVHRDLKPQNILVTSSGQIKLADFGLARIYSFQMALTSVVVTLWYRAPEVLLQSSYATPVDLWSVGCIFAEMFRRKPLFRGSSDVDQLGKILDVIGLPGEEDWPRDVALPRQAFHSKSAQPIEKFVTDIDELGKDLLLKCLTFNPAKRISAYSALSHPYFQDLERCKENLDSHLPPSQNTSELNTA
Sequence (P30281 whole entry partner, species assumed): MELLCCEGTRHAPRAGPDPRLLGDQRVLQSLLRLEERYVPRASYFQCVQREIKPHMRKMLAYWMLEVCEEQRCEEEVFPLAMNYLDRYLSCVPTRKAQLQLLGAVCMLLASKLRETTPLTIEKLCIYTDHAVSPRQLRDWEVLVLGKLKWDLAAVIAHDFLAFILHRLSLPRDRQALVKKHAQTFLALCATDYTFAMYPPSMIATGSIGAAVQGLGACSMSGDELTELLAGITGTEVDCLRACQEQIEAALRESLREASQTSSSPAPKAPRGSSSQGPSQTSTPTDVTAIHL
Assay: Kinase activity assay, CDK6/Cyclin D3 (tested in a similar manner)
Conditions: tested in a similar manner to CDK4/cyclin D3
MEASURE: IC50 (µM)

[
  {
    "CHEMICAL SMILES": "c1cc(Nc2ncc3ccc4onc(C5CCCC5)c4c3n2)ncc1N1CCNCC1",
    "IC50, µM": 0.021
  },
  {
    "CHEMICAL SMILES": "CC(C)c1noc2ccc3cnc(Nc4ccc(N5CCN(C(C)C)CC5)cn4)nc3c12",
    "IC50, µM": 0.014
  },
  {
    "CHEMICAL SMILES": "CC(C)c1noc2ccc3cnc(Nc4ccc(N5CCOCC5)cc4F)nc3c12",
    "IC50, µM": 0.359
  },
  {
    "CHEMICAL SMILES": "COc1ccc2cc(Nc3ncc4ccc5onc(C(C)C)c5c4n3)ccc2n1",
    "IC50, µM": 0.068
  },
  {
    "CHEMICAL SMILES": "Cc1nc(Nc2ncc3ccc4onc(C(C)C)c4c3n2)ccc1N1CCNCC1",
    "IC50, µM": 0.036
  }
]

A. CC(C)c1noc2ccc3cnc(Nc4ccc(N5CCOCC5)c(F)c4)nc3c12
B. CCN1CCN(c2ccc(Nc3ncc4ccc5onc(C(C)C)c5c4n3)cc2)CC1
C. Cc1cc(Nc2ncc3ccc4onc(C(C)C)c4c3n2)ncc1N1CCNCC1
*Q* Order the records so the highest IC50 appears first and the lowest last. # answer = labels listed in requested order
*A* A, C, B

Where do these numbers come from? They come from patent US12600731B2.
